- Tested on: Staphylococcus aureus
- Assay Text: Antimicrobial activity against methicillin-resistant Staphylococcus aureus N315 assessed as bacterial growth inhibition incubated for 24 hrs by Muller Hinton broth based dilution assay
- Assay type: functional

| Molecule Smiles | Target | Value Unit | Value Comparator | MIC |
| --- | --- | --- | --- | --- |
| CC(C)=CCN1CCCc2cc(OCCCCCCCCBr)ccc21 | Staphylococcus aureus | µg/mL | > | 50 |
| CC(C)=CCN1CCCc2cc(OCCCCCCCCCCBr)ccc21 | Staphylococcus aureus | µg/mL | = | 3.12 |
| CCCCCCCCCN1CCCc2cc(OCCCCBr)ccc21 | Staphylococcus aureus | µg/mL | = | 12.5 |
| O=C(O)c1cn(C2CC2)c2cc(N3CCNCC3)c(F)cc2c1=O | Staphylococcus aureus | µg/mL | = | 0.39 |
| CC(C)=CCN1CCCc2cc(OCCCCBr)ccc21 | Staphylococcus aureus | µg/mL | = | 12.5 |
| CCCCCN1CCCc2cc(OCCCCNC(=N)N)ccc21 | Staphylococcus aureus | µg/mL | = | 1.56 |

###

- Tested on: Staphylococcus aureus
- Assay Text: Antimicrobial activity against methicillin-resistant Staphylococcus aureus N315 assessed as bacterial growth inhibition incubated for 24 hrs by Muller Hinton broth based dilution assay
- Assay type: functional
Quick reference: MIC of the listed items.

| Molecule Smiles | MIC / µg/mL |
| --- | --- |
| CC(C)=CCN1CCCc2cc(OCCCCN(C)C)ccc21 | 25 |
| CCCN(CCC)CCCCOc1ccc2c(c1)CCCN2CC=C(C)C | 25 |
| CC(C)=CCC/C(C)=C/CN1CCCc2cc(OCCCCNC(=N)N)ccc21 | 0.78 |
| CCCCCCCN1CCCc2cc(OCC(=O)N[C@@H](CCCNC(=N)N)C(=O)OC)ccc21 | 1.56 |
| CCCCCCCCCN1CCCc2cc(OCCCCCCCCBr)ccc21 | 25 |
| CC(C)=CCN1CCCc2cc(OCCCCCCCCNC(=N)N)ccc21 | 0.78 |

###

Quick reference: viability at 24 h, 50 ug/mL of the listed items.
- Assay Text: Cytotoxicity against mouse corneal epithelial cells assessed as viable cells at 50 ug/mL incubated for 24 hrs by CCK-8 assay relative to control
- Assay type: toxicity, cell-based, Corneal epithelial cell
- Details: at 50 µg/mL, read-out: Activity
Observed Property: viability at 24 h, 50 ug/mL (%)

| Molecule Smiles | Numeric Result |
| --- | --- |
| CCCCCCCCCN1CCCc2cc(OCCCCNC(=N)N)ccc21 | 8.36 |
| CC(C)=CCN1CCCc2cc(OCCCCCCCCNC(=N)N)ccc21 | 36.3 |

###

- Assay Text: Cytotoxicity against mouse corneal epithelial cells assessed as viable cells at 6.25 ug/mL incubated for 24 hrs by CCK-8 assay relative to control
- Type: toxicity, cell-based, Corneal epithelial cell
- Details: at 6.25 µg/mL, read-out: Activity
Observed Property: viability at 24 h, 6.25 ug/mL (%)

| Molecule Smiles | Numeric Result |
| --- | --- |
| CC(C)=CCN1CCCc2cc(OCCCCCCCCNC(=N)N)ccc21 | 93.6 |
| CCCCCCCCCN1CCCc2cc(OCCCCNC(=N)N)ccc21 | 88.9 |

###

- Tested on: Staphylococcus aureus
- Assay Text: Antimicrobial activity against methicillin-resistant Staphylococcus aureus N315 assessed as bacterial growth inhibition incubated for 24 hrs by Muller Hinton broth based dilution assay
- Assay type: functional
Quick reference: MIC of the listed items.

| Molecule Smiles | Value Comparator | MIC / µg/mL |
| --- | --- | --- |
| CC(C)=CCC/C(C)=C/CN1CCCc2cc(OCCCCCCCCBr)ccc21 | = | 6.25 |
| CCCCCN1CCCc2cc(OCCCCBr)ccc21 | = | 25 |
| CCCCCCCCCN1CCCc2cc(OCC(=O)N[C@@H](CCCNC(=N)N)C(N)=O)ccc21 | = | 1.56 |
| CC(C)=CCN1CCCc2cc(OCCCCCCBr)ccc21 | = | 25 |
| CC(C)=CCC/C(C)=C/CN1CCCc2cc(O)ccc21 | = | 12.5 |
| CC(C)=CCC/C(C)=C/CN1CCCc2cc(OCCCCBr)ccc21 | = | 25 |
| CCCCCCCN1CCCc2cc(OCC(=O)OCC)ccc21 | > | 50 |
| CC(C)=CCN1CCCc2cc(OCCCNC(=N)N)ccc21 | = | 6.25 |
| N=C(N)NCCCCOc1ccc2c(c1)CCCN2CCCC(F)(F)F | = | 6.25 |
| CCCCCN1CCCc2cc(O)ccc21 | = | 25 |
| CC(C)=CCN1CCCc2cc(OCCCBr)ccc21 | = | 25 |
| Oc1ccc2c(c1)CCCN2CCCC(F)(F)F | > | 50 |

###

- System: Staphylococcus aureus
- Assay Text: Antimicrobial activity against methicillin-resistant Staphylococcus aureus N315 assessed as bacterial growth inhibition incubated for 24 hrs by Muller Hinton broth based dilution assay
- Format: functional
Observed Property: MIC (µg/mL)

| Molecule Smiles | Value Comparator | Numeric Result |
| --- | --- | --- |
| CCCCCN1CCCc2cc(OCC(=O)OCC)ccc21 | > | 50 |
| CCCCCCCCCN1CCCc2cc(OCC(=O)N[C@@H](CCCNC(=N)N)C(=O)N[C@@H](CCCNC(=N)N)C(N)=O)ccc21 | = | 3.12 |
| CC(C)=CCN1CCCc2cc(OCCCCN3CCCC3)ccc21 | > | 50 |
| Oc1ccc2c(c1)CCCN2 | > | 50 |
| CCCCCCCCCN1CCCc2cc(OCC(=O)OCC)ccc21 | > | 50 |
| CCCCCCCCCN1CCCc2cc(OCCCCCCCCNC(=N)N)ccc21 | = | 3.12 |
| CN[C@H](CC(C)C)C(=O)N[C@H]1C(=O)N[C@@H](CC(N)=O)C(=O)N[C@H]2C(=O)N[C@H]3C(=O)N[C@H](C(=O)N[C@H](C(=O)O)c4cc(O)cc(O)c4-c4cc3ccc4O)[C@H](O)c3ccc(c(Cl)c3)Oc3cc2cc(c3O[C@@H]2O[C@H](CO)[C@@H](O)[C@H](O)[C@H]2O[C@H]2C[C@](C)(N)[C@H](O)[C@H](C)O2)Oc2ccc(cc2Cl)[C@H]1O | = | 1.56 |
| CC(C)=CCN1CCCc2cc(OCCCCCCNC(=N)N)ccc21 | = | 0.78 |

###

- Assay Text: Cytotoxicity against mouse NCTC clone 929 cells assessed as viable cells at 12.5 ug/mL incubated for 24 hrs by CCK-8 assay relative to control
- Assay type: toxicity, cell-based
- Details: NCTC clone 929 (L929) cells, at 12.5 µg/mL, read-out: Activity

| Molecule Smiles | viability at 24 h, 12.5 ug/mL / % |
| --- | --- |
| CC(C)=CCN1CCCc2cc(OCCCCCCCCNC(=N)N)ccc21 | 89.3 |
| CCCCCCCCCN1CCCc2cc(OCCCCNC(=N)N)ccc21 | 89.4 |

###

- System: Staphylococcus aureus
- Assay Text: Antimicrobial activity against methicillin-resistant Staphylococcus aureus N315 assessed as bacterial growth inhibition incubated for 24 hrs by Muller Hinton broth based dilution assay
- Assay type: functional
Observed Property: log10(MIC) (log10 of the value in µg/mL)

| Molecule Smiles | Observed Property | Numeric Result |
| --- | --- | --- |
| CCCCCCCCCN1CCCc2cc(OCC(=O)N[C@@H](CCCNC(=N)N)C(=O)N[C@@H](CCCNC(=N)N)C(=O)N[C@@H](CCCNC(=N)N)C(=O)OC)ccc21 | log10(MIC) | 0.19 |
| CNCCCCOc1ccc2c(c1)CCCN2CC=C(C)C | log10(MIC) | 0.80 |
| CC(C)=CCC/C(C)=C/CN1CCCc2cc(OCCCCCCCCNC(=N)N)ccc21 | log10(MIC) | 0.49 |
| CCCCCCCCCN1CCCc2cc(O)ccc21 | log10(MIC) | 1.10 |
| FC(F)(F)CCCN1CCCc2cc(OCCCCBr)ccc21 | log10(MIC) | 1.40 |
| CC(C)=CCN1CCCc2cc(OCCCCNC(=N)N)ccc21 | log10(MIC) | 0.19 |
| CCCCCCCN1CCCc2cc(OCCCCCCCCNC(=N)N)ccc21 | log10(MIC) | -0.11 |
| CCCN1CCCc2cc(OCCCCNC(=N)N)ccc21 | log10(MIC) | 0.80 |
| CCCCCN1CCCc2cc(OCC(=O)N[C@@H](CCCNC(=N)N)C(=O)OC)ccc21 | log10(MIC) | 1.40 |
| CC(C)=CCN1CCCc2cc(OCCCCCCCCCCNC(=N)N)ccc21 | log10(MIC) | -0.11 |

###

Quick reference: viability at 24 h, 12.5 ug/mL of the listed items.
- Assay Text: Cytotoxicity against mouse corneal epithelial cells assessed as viable cells at 12.5 ug/mL incubated for 24 hrs by CCK-8 assay relative to control
- Format: toxicity, cell-based, Corneal epithelial cell
- Details: at 12.5 µg/mL, read-out: Activity

| Molecule Smiles | viability at 24 h, 12.5 ug/mL |
| --- | --- |
| CCCCCCCCCN1CCCc2cc(OCCCCNC(=N)N)ccc21 | 78% |
| CC(C)=CCN1CCCc2cc(OCCCCCCCCNC(=N)N)ccc21 | 87.6% |
